Reference source for all entries: PubChem BioAssay AID2071

# PROCEDURE TEXT: NALP1 inflammasome inhibitors in reconstituted yeast, colorimetric, S. cerevisiae, triplicate retest (AID 2071)
# MEASUREMENT CONTEXT: S. cerevisiae NALP1/ASC/caspase-1 growth, X-gal OD620, 72 h, active compounds read high; at 10 µM unless noted
The whole screen tested about 280,000 compounds, of which about 1,700 (0.61%) were called active. The sample as a whole holds a higher share of actives than the screen did.
Quick reference for inhibition among some molecules

>  <COMPOUND STRUCTURE>
COc1ccc(N=Cc2c(O)n(C)c(=O)[nH]c2=O)cc1

>  <inhibition>
12.7% (inactive)

$$$$
>  <COMPOUND STRUCTURE>
COc1ccc2[nH]c3c(c2c1)CCN[C@H]3C

>  <inhibition>
14.7% (inactive)

$$$$
>  <COMPOUND STRUCTURE>
COc1ccc(CNCCc2ccc3c(c2)OCO3)c(OC)c1OC

>  <inhibition>
30.6% (inactive)

$$$$
>  <COMPOUND STRUCTURE>
COc1ccc(CNCCc2c[nH]c3ccccc23)cc1OC

>  <inhibition>
-6% (inactive)

$$$$
>  <COMPOUND STRUCTURE>
CN(c1ccccc1)c1ccc([N+](=O)[O-])c2nonc12

>  <inhibition>
-7.2% (inactive)

$$$$
>  <COMPOUND STRUCTURE>
CN1CCN(C(=O)COc2ccc(C(C)(C)C)cc2Br)CC1

>  <inhibition>
8.8% (inactive)

$$$$
>  <COMPOUND STRUCTURE>
CCN(CC)C(=O)c1ccc(NC(=O)c2sccc2-c2ccccc2)cc1

>  <inhibition>
1% (inactive)

$$$$
>  <COMPOUND STRUCTURE>
Cc1ccc(S(=O)(=O)N(C)c2ccc(C(=O)NCC3(N(C)C)CCCCC3)cc2)cc1

>  <inhibition>
9.8% (inactive)

$$$$
>  <COMPOUND STRUCTURE>
Cc1nc2ccccc2c(=O)n1-c1ccc(Cl)cc1Cl

>  <inhibition>
11.2% (inactive)

$$$$
>  <COMPOUND STRUCTURE>
CCN1CCN(Cc2cc(OC)c3c(c2)OCO3)CC1

>  <inhibition>
-2.2% (inactive)

$$$$
